Test system: MDA-MB-468 breast
Test: NCI-60 one-dose screen, 48 h (100 = growth as untreated, 0 = no growth, -100 = all killed)
Details: 10 µM unless noted
About 83,000 compounds went through this panel and 20% of them were active in at least one assay; those are over-represented in the sample as a whole.
Property label: growth (%)
Unit % implied. Number only.

Illustrative cases are given below, each with its answer.
[[record]]
compound = "CCN1C(=O)/C(=C/C=C/N(C)c2ccccc2)SC1=S"
property_label = "growth"
reading_unit = "%"
number = 89.1

[[record]]
compound = "CCN(CC)Cc1cccc(C(=O)OC)c1"
property_label = "growth"
reading_unit = "%"
number = 97.2

[[record]]
compound = "COc1ccc(C(=O)c2cc3c(N)c(C(=O)Nc4ccc(Cl)cc4)sc3nc2C)cc1"
property_label = "growth"
reading_unit = "%"
number = 76.7

[[record]]
compound = "COc1ccc(-c2nnc(SCC(=O)Nc3ccc(C(=O)/C=C/c4ccc(OC)c(OC)c4)cc3)o2)cc1"
property_label = "growth"
reading_unit = "%"
number = 88.7

[[record]]
compound = "O=C1C=C(SCCO)C(=O)c2ccccc21"
property_label = "growth"
reading_unit = "%"
number = -42.6


Give a short answer stating reported growth for Brc1ccc2c(c1)CN(C1CCCCC1)CO2 . 110

Give a short answer stating reported growth for CCCCCCCCCCCCCCCCNC(=O)Nc1ccc2ccccc2c1 . 94.3

Give a short answer stating reported growth for Cc1nc(-c2ccccc2O)ccc1C(=O)N=Nc1c(O)[nH]c2ccc(Br)cc12 . 90.2

Give a short answer stating reported growth for Clc1nc2ccccc2cc1Cn1nnc(Cc2ccccc2)n1 . 11.1

Give a short answer stating reported growth for CCCCCc1nc2c(c3c1CCCC3)CCCC2 . 75.5

Give a short answer stating reported growth for CCN1CCCC1CNC(=O)c1ncc(-c2ccc(C(F)(F)F)cc2)c(NC2CCCCCC2)n1 (stereo unspecified) . 80.8
